Tested on: VchCAST RNA-guided transposition machinery (E. coli BL21(DE3) host, lacZ target)
Experiment: relative integration efficiency (T-LR orientation) vs wild-type transposon end (log2 (normalized fold change)); transposon end mutated: right end (5 bp flank + 75 bp right end); higher = more efficient transposition
READOUT_NAME: relative integration efficiency (log2)

BIOSEQUENCE | READOUT_NAME | MEASURED_RESULT
ACATTTGTTGATACAACCATAATATGATAATTACACCCATAATTTGATAATTATCACACCCATAATTTGATATTGCCTCTGATCATAGTCAGACCAACATTGCTACGACCCGTATTCGCACCGACAC | relative integration efficiency (log2) | -0.428
ACATTTGTTGATACAACCATAAAAGGATCATTACACCCATAAATTGATAATTATCCCACCCAATTTAACTATAACGCTCTGATCATAGTCAGACCAACATTGCTACGACCCGTATTCGCACCGACAC | relative integration efficiency (log2) | 1.75
ACATTTGTTGATACAACCATAAAAGGATCATTACACCCATAAATTGATAATTATCACACCCCATTTAACTATAACGCTCTGATCATAGTCAGACCAACATTGCTACGACCCGTATTCGCACCGACAC | relative integration efficiency (log2) | 1.27
ACATTTGTTGATACAACCATAAAATGATAATTAGTGGCATAAATTGATAATTATCACACCCATAAATTGATATTGCCTCTGATCATAGTCAGACCAACATTGCTACGACCCGTATTCGCACCGACAC | relative integration efficiency (log2) | -1.87
ACATTTGTTGATACCACCATAAAATGGTAATTACACCCCTAAATTGATAATTATCACACCCAATTTAACTATAACGCTCTGATCATAGTCAGACCAACATTGCTACGACCCGTATTCGCACCGACAC | relative integration efficiency (log2) | -0.273
ACATTTGTTGATACAACCATAAAATGATAATTACACCCATAAATTGATAATTATCACACCCATAAATTGATATTGCCTCTGATCAACCATAAAATGATAATTACATAGTCAGACCAAGCACCGACAC | relative integration efficiency (log2) | 0.401
ACATTTGTTCATACAACCATAAAATGATAATTACACCCATAAATTGATCATTATCACCCCCAATTTAACTATAACGCTCTGATCATAGTCAGACCAACATTGCTACGACCCGTATTCGCACCGACAC | relative integration efficiency (log2) | 0.514
ACATTTGTTGATACAACCATAAAATGATAATTACACCGTATAATTGATAATTATCACACCCATAAATTGATATTGCCTCTGATCATAGTCAGACCAACATTGCTACGACCCGTATTCGCACCGACAC | relative integration efficiency (log2) | -1.63
ACATTTGTTGATACAACCATAAAAGGATAATTACCCCCATCAATTGATAATTATCCCACCCAATTTAACTATAACGCTCTGATCATAGTCAGACCAACATTGCTACGACCCGTATTCGCACCGACAC | relative integration efficiency (log2) | 1.91
ACATTTGTTGATACAACCATAAAATGATAATTAATAATTATTTATAATCAGCAACTTAACCACAAAACACCCATAAATTGATAATTATCAACAAACGCCCGGTCGCGGTACTCTGATCATAGTCAGA | relative integration efficiency (log2) | -2.48
ACATTTGTTGATACAACCATAAAATGATAATTACACCCATAAATGTCGCCGGCGACACAAACGCCCGGTCGCGGTAAGAGGATCATAGTCAGACCAACATTGCTACGACCCGTATTCGCACCGACAC | relative integration efficiency (log2) | 1
ACATTTGTTGATACAACCATTAAATGGTAATTCCACCCATATATTGATAATTATCACACCCAATTTAACTATAACGCTCTGATCATAGTCAGACCAACATTGCTACGACCCGTATTCGCACCGACAC | relative integration efficiency (log2) | 1.37
ACATTTGTTGATACAACCATAAAATGATAATTACACCCATAAATTGATAATTATACCACCCATAAATTGATATTGCCTCTGATCATAGTCAGACCAACATTGCTACGACCCGTATTCGCACCGACAC | relative integration efficiency (log2) | 0.802
ACATTTGTTGATACAACCATAAAATGATAATTACAACCATAAAATGATAATTATCACAACCATAAAGTGATATTTACTCTGATCATAGTCAGACCAACATTGCTACGACCCGTATTCGCACCGACAC | relative integration efficiency (log2) | -0.296
ACATTTGTTGATACCACCATCAAATGGTAATTACACCCCTACATTGATAATTATCACACCCAATTTAACTATAACGCTCTGATCATAGTCAGACCAACATTGCTACGACCCGTATTCGCACCGACAC | relative integration efficiency (log2) | 0.00776
ACATTTGTTGATACAACCATAAAATGATAATTACAACCATATATTGATATCTCTCAGTGGGTATTTAACTATAACGCTCTGATCATAGTCAGACCAACATTGCTACGACCCGTATTCGCACCGACAC | relative integration efficiency (log2) | 3.01
ACATTTGTTGATACAACCATAAACTGATAATTACACCCATAAAGTGATAATTATCACACCCATAAAGTGATATTGCCTCTGATCATAGTCAGACCAACATTGCTACGACCCGTATTCGCACCGACAC | relative integration efficiency (log2) | 0.264
ACATTTGTTGAGCACACCATAAAATGATAATTACACCCATAAATTGATAATTATCACACCCATAAATTGATATTGCCTCTGATCATAGTCAGACCAACATTGCTACGACCCGTATTCGCACCGACAC | relative integration efficiency (log2) | -1.83
ACATTTGTTGATACAACCATAAAATGATAATTACAACCATAAAATGATAATTATCACAACCATAAGTTGATATTTTCTCTGATCATAGTCAGACCAACATTGCTACGACCCGTATTCGCACCGACAC | relative integration efficiency (log2) | -0.17
ACATTTGTTGATACAACCATAAAATGGTAATTACACCCCTACATTGATAATTATCACACCCAATTTAACTATAACGCTCTGATCATAGTCAGACCAACATTGCTACGACCCGTATTCGCACCGACAC | relative integration efficiency (log2) | -0.856
